# TARGET OR SYSTEM: N-type calcium channel α1B+SFVG (Homo sapiens)
# MEASUREMENT NOTES: Calcium channel modulation in HEK298 cells
ENDPOINT LABEL: IC50 (µM)
Give a bare numeral; the unit µM is implied.

Prompt line: I'm curious: which IC50 was measured for COc1cc(CN2CCN(CCCCCC(c3ccc(F)cc3)c3ccc(F)cc3)CC2)cc(OC)c1OC [Compound 1] tested on N-type calcium channel α1B+SFVG (Homo sapiens)?
Response line: 0.19

* * *

# TARGET OR SYSTEM: N-type calcium channel α1B+SFVG (Homo sapiens, UniProt Q00975, INS1237SFVG)
# Sequence (Q00975 with tags, fused parts or gaps INS1237SFVG): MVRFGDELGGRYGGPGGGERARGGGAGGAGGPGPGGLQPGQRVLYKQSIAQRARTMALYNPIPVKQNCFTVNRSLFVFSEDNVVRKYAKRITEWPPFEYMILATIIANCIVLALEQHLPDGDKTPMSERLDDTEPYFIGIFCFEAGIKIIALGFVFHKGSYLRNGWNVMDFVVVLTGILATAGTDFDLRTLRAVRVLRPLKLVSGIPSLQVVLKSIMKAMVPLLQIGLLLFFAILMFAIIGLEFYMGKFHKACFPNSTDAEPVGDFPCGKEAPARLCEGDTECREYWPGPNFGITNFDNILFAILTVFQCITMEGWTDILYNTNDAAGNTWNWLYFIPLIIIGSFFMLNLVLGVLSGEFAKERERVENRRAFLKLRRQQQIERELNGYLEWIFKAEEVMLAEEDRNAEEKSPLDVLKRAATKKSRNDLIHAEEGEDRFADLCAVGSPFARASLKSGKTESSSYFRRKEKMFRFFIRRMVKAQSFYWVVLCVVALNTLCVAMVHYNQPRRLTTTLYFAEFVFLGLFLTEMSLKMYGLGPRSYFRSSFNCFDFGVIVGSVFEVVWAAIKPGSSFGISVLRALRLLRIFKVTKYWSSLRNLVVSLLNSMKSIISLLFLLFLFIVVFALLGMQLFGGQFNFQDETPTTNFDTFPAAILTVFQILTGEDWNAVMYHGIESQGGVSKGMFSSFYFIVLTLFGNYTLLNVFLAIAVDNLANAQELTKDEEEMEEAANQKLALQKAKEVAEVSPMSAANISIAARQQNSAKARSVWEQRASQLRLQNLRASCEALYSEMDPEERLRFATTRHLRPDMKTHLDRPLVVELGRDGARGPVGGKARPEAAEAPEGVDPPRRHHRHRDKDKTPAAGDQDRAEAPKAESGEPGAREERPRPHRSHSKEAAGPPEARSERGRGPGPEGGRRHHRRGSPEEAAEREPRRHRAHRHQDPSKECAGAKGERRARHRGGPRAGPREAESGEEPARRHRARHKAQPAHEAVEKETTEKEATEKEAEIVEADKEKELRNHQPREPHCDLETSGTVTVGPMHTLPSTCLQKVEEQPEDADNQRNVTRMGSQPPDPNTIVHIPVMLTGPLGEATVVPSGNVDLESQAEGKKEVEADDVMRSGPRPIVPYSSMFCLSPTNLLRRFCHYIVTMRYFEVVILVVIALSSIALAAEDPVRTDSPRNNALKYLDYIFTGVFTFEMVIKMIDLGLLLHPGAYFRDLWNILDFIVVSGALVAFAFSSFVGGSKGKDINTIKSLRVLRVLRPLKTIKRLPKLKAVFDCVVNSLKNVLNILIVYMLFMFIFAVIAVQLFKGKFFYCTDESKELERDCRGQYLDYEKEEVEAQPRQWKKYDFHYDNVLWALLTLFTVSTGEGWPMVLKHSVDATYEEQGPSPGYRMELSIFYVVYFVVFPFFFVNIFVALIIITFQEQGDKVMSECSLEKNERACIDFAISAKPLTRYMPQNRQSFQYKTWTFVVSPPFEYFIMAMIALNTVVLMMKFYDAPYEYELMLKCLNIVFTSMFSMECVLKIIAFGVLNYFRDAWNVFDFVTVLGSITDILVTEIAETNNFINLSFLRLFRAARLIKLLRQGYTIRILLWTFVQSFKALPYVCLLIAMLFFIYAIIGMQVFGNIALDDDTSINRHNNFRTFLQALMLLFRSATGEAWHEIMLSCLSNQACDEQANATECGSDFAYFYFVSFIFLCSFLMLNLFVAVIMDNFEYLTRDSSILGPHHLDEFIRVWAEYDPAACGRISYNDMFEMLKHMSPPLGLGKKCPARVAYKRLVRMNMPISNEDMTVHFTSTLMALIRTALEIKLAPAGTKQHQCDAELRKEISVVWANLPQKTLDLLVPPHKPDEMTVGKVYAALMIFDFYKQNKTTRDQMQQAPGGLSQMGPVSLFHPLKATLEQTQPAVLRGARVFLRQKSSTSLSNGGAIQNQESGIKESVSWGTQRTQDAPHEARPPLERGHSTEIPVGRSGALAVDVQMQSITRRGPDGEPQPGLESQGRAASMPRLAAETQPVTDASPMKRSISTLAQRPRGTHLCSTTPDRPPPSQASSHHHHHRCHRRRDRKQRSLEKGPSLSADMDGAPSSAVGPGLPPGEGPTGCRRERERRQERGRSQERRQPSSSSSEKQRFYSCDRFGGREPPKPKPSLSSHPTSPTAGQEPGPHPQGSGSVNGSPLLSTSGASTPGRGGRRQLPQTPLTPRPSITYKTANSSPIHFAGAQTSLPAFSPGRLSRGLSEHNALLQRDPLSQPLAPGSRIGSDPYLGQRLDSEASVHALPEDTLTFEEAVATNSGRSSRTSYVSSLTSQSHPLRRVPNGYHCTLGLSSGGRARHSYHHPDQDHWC
# MEASUREMENT NOTES: Transient expression and recording from Xenopus oocytes, calcium channel modulation
# COND: transient expression
# Description: Representative compounds of the formulae herein are screened for activity against […] in an assay essentially as described in J. Neurosci., Aug. 15, 2001, 21(16):5944-5951, W. Xu and D. Lipscombe, using transient expression and recording from Xenopus oocytes. The assay is performed using various calcium channels (e.g., N-type calcium channel α1B+SFVG) whereby the modulation of the calcium channel is measured for each compound. […]
ENDPOINT LABEL: IC50 (µM)
Expressed in µM, but write only the number.

[
  {
    "SMILES TEXT": "O=C(CCCCC(c1ccccc1)c1ccccc1)N1CCC(NCc2ccccc2)CC1",
    "SCALE UNIT": "µM",
    "IC50": 4.16
  }
]

Prompt line: For the record COc1cc(CN2CCN(CCCCCC(c3ccc(F)cc3)c3ccc(F)cc3)CC2)cc(OC)c1OC , what value of IC50 is listed for N-type calcium channel α1B+SFVG (Homo sapiens, UniProt Q00975, INS1237SFVG)?
Response line: 7.13
